- Test system: HeLa Kyoto
- Procedure details: solubility in G1/S (NP-40 vs SDS abundance) (log2 ratio); higher = more soluble
- Measurement conditions: cell cycle stage: G1/S
Listed below: solubility in G1/S (log2) values for each entry.
Form rule: numeric answer, no unit written next to it.

[[record]]
entry_sequence = "MATEGDVELELETETSGPERPPEKPRKHDSGAADLERVTDYAEEKEIQSSNLETAMSVIGDRRSREQKAKQEREKELAKVTIKKEDLELIMTEMEISRAAAERSLREHMGNVVEALIALTN [HYPK]"
val = 0.395

[[record]]
entry_sequence = "MDPLFQQTHKQVHEIQSCMGRLETADKQSVHIVENEIQASIDQIFSRLERLEILSSKEPPNKRQNARLRVDQLKYDVQHLQTALRNFQHRRHAREQQERQREELLSRTFTTNDSDTTIPMDESLQFNSSLQKVHNGMDDLILDGHNILDGLRTQRLTLKGTQKKILDIANMLGLSNTVMRLIEKRAFQDKYFMIGGMLLTCVVMFLVVQYLT [GOSR2]"
val = 0.00468

[[record]]
entry_sequence = "MMGSKMASASRVVQVVKPHTPLIRFPDRRDNPKPNVSEALRSAGLPSHSSVISQHSKGSKSPDLLMYQGPPDTAEIIKTLPQKYRRKLVSQEEMEFIQRGGPE [MRPS36]"
val = 0.138


Please look at the following sequence next.
Write down the reported solubility in G1/S (log2) of MNNKFDALKDDDSGDHDQNEENSTQKDGEKEKTERDKNQSSSKRKAVVPGPAEHPLQYNYTFWYSRRTPGRPTSSQSYEQNIKQIGTFASVEQFWRFYSHMVRPGDLTGHSDFHLFKEGIKPMWEDDANKNGGKWIIRLRKGLASRCWENLILAMLGEQFMVGEEICGAVVSVRFQEDIISIWNKTASDQATTARIRDTLRRVLNLPPNTIMEYKTHTDSIKMPGRLGPQRLLFQNLWKPRLNVP [EIF4E2] , test system: HeLa Kyoto.
0.114

----------
Listed below: melting temperature values for each entry.
- Test system: HeLa Kyoto
- Procedure details: melting temperature (median over replicates), in situ; higher = more thermally stable
- Measurement conditions: cell cycle stage: G1/S
API: value field is a number in °C; no unit string.

[[record]]
substance = "MSEPIRVLVTGAAGQIAYSLLYSIGNGSVFGKDQPIILVLLDITPMMGVLDGVLMELQDCALPLLKDVIATDKEDVAFKDLDVAILVGSMPRREGMERKDLLKANVKIFKSQGAALDKYAKKSVKVIVVGNPANTNCLTASKSAPSIPKENFSCLTRLDHNRAKAQIALKLGVTANDVKNVIIWGNHSSTQYPDVNHAKVKLQGKEVGVYEALKDDSWLKGEFVTTVQQRGAAVIKARKLSSAMSAAKAICDHVRDIWFGTPEGEFVSMGVISDGNSYGVPDDLLYSFPVVIKNKTWKFVEGLPINDFSREKMDLTAKELTEEKESAFEFLSSA [MDH1]"
value_unit = "°C"
val = 57.2


Write down the reported melting temperature of MAQVLRGTVTDFPGFDERADAETLRKAMKGLGTDEESILTLLTSRSNAQRQEISAAFKTLFGRDLLDDLKSELTGKFEKLIVALMKPSRLYDAYELKHALKGAGTNEKVLTEIIASRTPEELRAIKQVYEEEYGSSLEDDVVGDTSGYYQRMLVVLLQANRDPDAGIDEAQVEQDAQALFQAGELKWGTDEEKFITIFGTRSVSHLRKVFDKYMTISGFQIEETIDRETSGNLEQLLLAVVKSIRSIPAYLAETLYYAMKGAGTDDHTLIRVMVSRSEIDLFNIRKEFRKNFATSLYSMIKGDTSGDYKKALLLLCGEDD [ANXA5] , test system: HeLa Kyoto.
49.4

Write down the reported melting temperature of MLRSCAARLRTLGALCLPPVGRRLPGSEPRPELRSFSSEEVILKDCSVPNPSWNKDLRLLFDQFMKKCEDGSWKRLPSYKRTPTEWIQDFKTHFLDPKLMKEEQMSQAQLFTRSFDDGLGFEYVMFYNDIEKRMVCLFQGGPYLEGPPGFIHGGAIATMIDATVGMCAMMAGGIVMTANLNINYKRPIPLCSVVMINSQLDKVEGRKFFVSCNVQSVDEKTLYSEATSLFIKLNPAKSLT [THEM4] , test system: HeLa Kyoto.
54.7

Write down the reported melting temperature of MVNPGSSSQPPPVTAGSLSWKRCAGCGGKIADRFLLYAMDSYWHSRCLKCSCCQAQLGDIGTSCYTKSGMILCRNDYIRLFGNSGACSACGQSIPASELVMRAQGNVYHLKCFTCSTCRNRLVPGDRFHYINGSLFCEHDRPTALINGHLNSLQSNPLLPDQKVC [LMO4] , test system: HeLa Kyoto.
52.8

Write down the reported melting temperature of MRRAWILLTLGLVACVSAESRAELTSDKDMYLDNSSIEEASGVYPIDDDDYASASGSGADEDVESPELTTSRPLPKILLTSAAPKVETTTLNIQNKIPAQTKSPEETDKEKVHLSDSERKMDPAEEDTNVYTEKHSDSLFKRTEVLAAVIAGGVIGFLFAIFLILLLVYRMRKKDEGSYDLGERKPSSAAYQKAPTKEFYA [SDC2] , test system: HeLa Kyoto.
55.6

----------
- Tested on: HeLa Kyoto
- Procedure details: solubility change mitosis vs G1/S (difference of NP-40 vs SDS log2 ratios) (log2 ratio difference); higher = more soluble in mitosis
Listed below: solubility change mitosis (log2) values for each entry.
Form rule: numeric answer, no unit written next to it.

Past entries and their recorded results:
[[record]]
entry_sequence = "MFRIEGLAPKLDPEEMKRKMREDVISSIRNFLIYVALLRVTPFILKKLDSI [TOMM5]"
assayed_target = "HeLa Kyoto"
val = -0.172

[[record]]
entry_sequence = "MVDKKLVVVFGGTGAQGGSVARTLLEDGTFKVRVVTRNPRKKAAKELRLQGAEVVQGDQDDQVIMELALNGAYATFIVTNYWESCSQEQEVKQGKLLADLARRLGLHYVVYSGLENIKKLTAGRLAAAHFDGKGEVEEYFRDIGVPMTSVRLPCYFENLLSHFLPQKAPDGKSYLLSLPTGDVPMDGMSVSDLGPVVLSLLKMPEKYVGQNIGLSTCRHTAEEYAALLTKHTRKVVHDAKMTPEDYEKLGFPGARDLANMFRFYALRPDRDIELTLRLNPKALTLDQWLEQHKGDFNLL [NMRAL1]"
assayed_target = "HeLa Kyoto"
val = -0.127

[[record]]
entry_sequence = "MELFLAGRRVLVTGAGKGIGRGTVQALHATGARVVAVSRTQADLDSLVRECPGIEPVCVDLGDWEATERALGSVGPVDLLVNNAAVALLQPFLEVTKEAFDRSFEVNLRAVIQVSQIVARGLIARGVPGAIVNVSSQCSQRAVTNHSVYCSTKGALDMLTKVMALELGPHKIRVNAVNPTVVMTSMGQATWSDPHKAKTMLNRIPLGKFAEVEHVVNAILFLLSDRSGMTTGSTLPVEGGFWAC [DCXR]"
assayed_target = "HeLa Kyoto"
val = -0.0268

[[record]]
entry_sequence = "MSGQRVDVKVVMLGKEYVGKTSLVERYVHDRFLVGPYQNTIGAAFVAKVMSVGDRTVTLGIWDTAGSERYEAMSRIYYRGAKAAIVCYDLTDSSSFERAKFWVKELRSLEEGCQIYLCGTKSDLLEEDRRRRRVDFHDVQDYADNIKAQLFETSSKTGQSVDELFQKVAEDYVSVAAFQVMTEDKGVDLGQKPNPYFYSCCHH [RAB24]"
assayed_target = "HeLa Kyoto"
val = -0.172

[[record]]
entry_sequence = "MSRRRFDCRSISGLLTTTPQIPIKMENFNNFYILTSKELGRGKFAVVRQCISKSTGQEYAAKFLKKRRRGQDCRAEILHEIAVLELAKSCPRVINLHEVYENTSEIILILEYAAGGEIFSLCLPELAEMVSENDVIRLIKQILEGVYYLHQNNIVHLDLKPQNILLSSIYPLGDIKIVDFGMSRKIGHACELREIMGTPEYLAPEILNYDPITTATDMWNIGIIAYMLLTHTSPFVGEDNQETYLNISQVNVDYSEETFSSVSQLATDFIQSLLVKNPEKRPTAEICLSHSWLQQWDFENLFHPEETSSSSQTQDHSVRSSEDKTSKSSCNGTCGDREDKENIPEDSSMVSKRFRFDDSLPNPHELVSDLLC [STK17B]"
assayed_target = "HeLa Kyoto"
val = -0.161


// returns reported solubility change mitosis (log2) for input MAMLRVQPEAQAKVDVFREDLCTKTENLLGSYFPKKISELDAFLKEPALNEANLSNLKAPLDIPVPDPVKEKEKEERKKQQEKEDKDEKKKGEDEDKGPPCGPVNCNEKIVVLLQRLKPEIKDVIEQLNLVTTWLQLQIPRIEDGNNFGVAVQEKVFELMTSLHTKLEGFHTQISKYFSERGDAVTKAAKQPHVGDYRQLVHELDEAEYRDIRLMVMEIRNAYAVLYDIILKNFEKLKKPRGETKGMIY [PSME1]
0.0323

// returns reported solubility change mitosis (log2) for input MSYTPGVGGDPAQLAQRISSNIQKITQCSVEIQRTLNQLGTPQDSPELRQQLQQKQQYTNQLAKETDKYIKEFGSLPTTPSEQRQRKIQKDRLVAEFTTSLTNFQKVQRQAAEREKEFVARVRASSRVSGSFPEDSSKERNLVSWESQTQPQVQVQDEEITEDDLRLIHERESSIRQLEADIMDINEIFKDLGMMIHEQGDVIDSIEANVENAEVHVQQANQQLSRAADYQRKSRKTLCIIILILVIGVAIISLIIWGLNH [STX7]
0.264

// returns reported solubility change mitosis (log2) for input MALRACGLIIFRRCLIPKVDNNAIEFLLLQASDGIHHWTPPKGHVEPGEDDLETALRETQEEAGIEAGQLTIIEGFKRELNYVARNKPKTVIYWLAEVKDYDVEIRLSHEHQAYRWLGLEEACQLAQFKEMKAALQEGHQFLCSIEA [NUDT2]
0.0921
